Measured values drawn from patent US20190218277A1 for this set.

TESTED TARGET: T1, Recombinant soluble E protein (0.8E-His) from DENV-1 (DENV-1, UniProt P27909 281-675)
T1 construct: also called DENV-1 E protein; DV1
The threshold is 2 nM. Values of Kd beneath it are tagged yes; values meeting or exceeding it are tagged no.

BINDER: DG_3CH1049-SG182/3CL012-SK1 (antibody, V domains shown) VH: QVQLVQSGAEVKKPGASVKVSCKASGYTFTSYYMHWVRQAPGQGLEWMGVINPRGGSRRSAQKFQGRVTMTRDTSTSTVYMELSSLRSEDTAVYYCARGGEALFYDSYTTPFDGGSWWFDPWGQGSLVTVSS VL: DIQLTQSPSSLSASVGDRVTFTCQASQDIRKYLNWYQQKPGKAPKLLIYDASNLKTGVPSRFSGSGSGTDFTFTISSLQPEDVATYYCQQFEDLPITFGQGTRLQIKR
GROUP: no

BINDER: DG_3CH987-SG182/3CL119-SK1 (antibody, V domains shown) VH: QVQLVQSGPDVEKPGASVKVSCKASGYTFTSYYIHWVRQAPGQGLEWMGVINPRGGSRRSAQKFQGRITMTRDTSTSTVYMELSSLRSEDTAVYYCARGGRALFYDSYTTPFDGGSWWFDPWGQGSLVTVSS VL: DIQLTQSPSSLSASVGDRVTFTCQASQEIRKYLNWYQQKPGKAPKLLIYDASNLKTGVPSRFSGSGSGTDFTFTISSLQPEDVATYYCQQFDDLPITFGQGTRLQIKR
GROUP: yes

BINDER: DG_3CH1047-SG182/3CL666-SK1 (antibody, V domains shown) VH: QVQLVQSGPDVEKPGASVKVSCKASGYTFTSYYMHWVRQAPGQGLEWMGVINPRGGSRRSAQKFQGRITMTRDTSTSTVYMELSSLRSEDTAVYYCARGGEALFYDSYTTPFDGGSWWFDPWGQGSLVTVSS VL: DIQLTQSPSSLSASVGDRVTITCQASQEIRKYLNWYQQKPGKAPKLLIYDASNLKTGVPSRFSGSGSGTDFTLTISSLQPEDVATYYCQQFDDLPITFGQGTRLQIKR
GROUP: yes

BINDER: DG_3CH1049-SG182/3CL-SK1 (antibody, V domains shown) VH: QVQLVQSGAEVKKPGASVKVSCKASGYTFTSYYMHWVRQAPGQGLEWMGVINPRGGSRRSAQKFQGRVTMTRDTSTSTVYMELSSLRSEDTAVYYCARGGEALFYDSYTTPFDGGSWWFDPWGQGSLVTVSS VL: DIQLTQSPSSLSASVGDRVTFTCQASQDIRKYLNWYQQKPGKAPKLLIYDASNLKTGVPSRFSGSGSGTDFTFTISSLQPEDVATYYCQQFDDLPITFGQGTRLQIKR
GROUP: no

BINDER: DG_3CH1049-SG182/3CL666-SK1 (antibody, V domains shown) VH: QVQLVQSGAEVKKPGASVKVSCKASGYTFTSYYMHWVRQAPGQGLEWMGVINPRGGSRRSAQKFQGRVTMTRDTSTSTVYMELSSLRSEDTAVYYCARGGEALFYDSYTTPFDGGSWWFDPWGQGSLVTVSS VL: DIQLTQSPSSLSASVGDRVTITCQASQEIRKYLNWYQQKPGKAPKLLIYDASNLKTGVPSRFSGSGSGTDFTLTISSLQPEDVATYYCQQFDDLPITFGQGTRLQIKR
GROUP: yes
